Below, each of the compounds is paired with its reported Agonist Bronchospasm (in Vivo)-oral, PAF, % Inhibition value.
- Tested on: PAF-induced bronchospasm
- Method summary: Spasmogen-induced bronchospasm in guinea pigs, PAF challenge
- Assay type: in vivo, guinea pig (male Hartley)
- Test context: dose 3 mpk, PAF 0.4 μg/kg i.v., inhibition of increase in inflation pressure vs control
Number in %, nothing else.

O=C(c1cc[n+]([O-])cc1)N1CCC(C2(O)c3ccccc3Sc3ccccc32)CC1 [IA-6] :: 20
[O-][n+]1ccc(CN2CCC(C3(O)c4ccccc4Oc4ncccc43)CC2)cc1 (centres unmarked) [IA-12] :: 42
O=C(c1cc[n+]([O-])cc1)N1CCC(C2(O)c3ccccc3CCc3cccnc32)CC1 (centres unmarked) [IA-8] :: 25
O=C(c1cc[n+]([O-])cc1)N1CCC(C2(O)c3ccccc3Oc3cccnc32)CC1 (centres unmarked) [IA-3] :: 97

Query: Given CN1c2ccccc2C(O)(C2CCN(C(=O)c3cc[n+]([O-])cc3)CC2)c2ccccc21 [IA-5] , state its recorded Agonist Bronchospasm (in Vivo)-oral, PAF, % Inhibition.
Response: 7
